Where do these numbers come from? They come from patent US20250163074A1.

Test system: MCF7 adenocarcinoma cell line
Experiment: Cell proliferation studies in MCF7 cells (ATP-Lite)
Assay type: cell-based
Settings: Homo sapiens, 240 h, 10 days incubation, cell viability by ATP-Lite luminescence, read-out: PROLIFERATION_CTG_MCF7 IC50
pIC50: −log10 of the molar value.
experimental.endpoint: pIC50

So the reported pIC50 for Cc1c(-c2nc(Nc3ccc(C4CCN(C)CC4)cn3)ncc2F)sc2c1C(=O)N(C)CC21CCC1 , on MCF7 adenocarcinoma cell line, turned out to be 6.70 to 7.70

So the reported pIC50 for Cc1c(-c2nc(Nc3ccc(C4CCN(C)CC4)cn3)ncc2F)sc2c1C(=O)N(C)CC21CCCC1 , on MCF7 adenocarcinoma cell line, turned out to be 6.70 to 7.70

So the reported pIC50 for Cc1c(-c2nc(Nc3ccc(N4CC5(CCN(C)C5)C4)cn3)ncc2F)sc2c1C(=O)N(C)CC21CCC1 , on MCF7 adenocarcinoma cell line, turned out to be 6.70 to 7.70

So the reported pIC50 for CCN1CCC(c2ccc(Nc3ncc(F)c(-c4cc5c(s4)C4(CC4)CN(C)C5=O)n3)nc2)C1 (centres unmarked) , on MCF7 adenocarcinoma cell line, turned out to be 5.70 to 6.70

So the reported pIC50 for CN1CCC(c2ccc(Nc3ncc(F)c(-c4cc5c(s4)C4(CCCC4)N(C)C5=O)n3)nc2)CC1 , on MCF7 adenocarcinoma cell line, turned out to be ≥ 7.70

Continuing:
So the reported pIC50 for CN1CCC(c2ccc(Nc3ncc(F)c(-c4sc5c(c4C(F)(F)F)C(=O)N(C)C54CCCC4)n3)nc2)CC1 , on MCF7 adenocarcinoma cell line, turned out to be ≥ 7.70

So the reported pIC50 for CCN1CC2(C1)CN(c1ccc(Nc3ncc(F)c(-c4cc5c(s4)C4(CCCC4)N(CC)C5=O)n3)nc1)C2 , on MCF7 adenocarcinoma cell line, turned out to be 6.70 to 7.70

So the reported pIC50 for CN1CCC(c2ccc(Nc3ncc(F)c(-c4cc5c(s4)C4(CCCCC4)CN(C)C5=O)n3)nc2)CC1 , on MCF7 adenocarcinoma cell line, turned out to be ≥ 7.70
